Origin of the recorded values: the supplement of paper PMC7877785

assay: self-splicing fitness, log relative to wild type (ln ratio); higher = more splicing; Tetrahymena group I intron in knt gene, E. coli kanamycin selection, DiMSum; sequences stand for … in CUCUCU…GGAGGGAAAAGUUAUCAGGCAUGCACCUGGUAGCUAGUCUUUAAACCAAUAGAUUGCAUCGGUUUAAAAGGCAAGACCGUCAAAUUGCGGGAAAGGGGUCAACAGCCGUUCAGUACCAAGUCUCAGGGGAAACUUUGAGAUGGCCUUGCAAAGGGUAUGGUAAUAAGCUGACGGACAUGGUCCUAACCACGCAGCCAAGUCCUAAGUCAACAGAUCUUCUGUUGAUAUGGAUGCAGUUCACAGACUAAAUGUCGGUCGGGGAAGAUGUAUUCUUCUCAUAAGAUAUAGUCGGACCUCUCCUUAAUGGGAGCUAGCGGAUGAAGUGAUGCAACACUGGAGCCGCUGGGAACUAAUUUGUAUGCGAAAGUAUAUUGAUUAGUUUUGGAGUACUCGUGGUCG; settings: 37 °C;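 note: selection with 25 µg/mL kanamycin versus none on LB agar overnight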
Lab note: class by self-splicing fitness (ln), see bottom: < -2; middle: ≥ -2 and < -0.8; top: ≥ -0.8

Examples from the recorded data:
Which band does UGGAAGCAAUAUUACGCGGC fall in?
middle

Subsequent entry: GCUAAGCAAUAUUACGCCGA
middle

What would you report for GCUGAGCAAUAUUACGCUGU ?
bottom

What do we get for UGGCAGCAAUAUUACGGACU ?
top

For CUGGAGCAAUAUUACGCCGU then?
middle

New cases:
Into which category would you place CCCAAGCAAUAUUACGUGGU ?
middle

Repeat for the following sequence: UAUCAGCAAUAUUACGGUGG
top

CAUCAGCAAUAUUACGAGCG , same question.
top
